B1: tRNA (parent)
chain: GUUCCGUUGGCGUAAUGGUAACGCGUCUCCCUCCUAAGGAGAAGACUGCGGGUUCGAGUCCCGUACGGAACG

# Variants of: B1
# experiment.notes: yeast fitness relative to wild type (ratio to wild type); higher = fitter; tRNA-Arg(CCU), competitive growth, 37 C, YPD
Fewer inactive variants are shown than the library holds.
parameter: yeast fitness

Solved cases below.
INSERT INTO assay_data (residue_codes, result) VALUES
  ('GUUCCGUUGGCGUAAUGGUAACGCGUCCCCCUCCUAAGGCGAAGACUGCGGGUUCCAGUCCCGUGCGGAACG', '≤ 0.5'),
  ('GUUCCGUUGGCGUAUUGGUAACGCGUCUACCUCGUAAGGAGAAGACUGCGGGUUCGAGACCCGUACGGCACG', '≤ 0.5'),
  ('GUUCCGUUGGCGUAAUGGUAACGCGUCUGCCUCCUAAGGAGAAGACUGAGGGUUCGAGUCCCGUACCGAACG', '≤ 0.5');

Could you tell me yeast fitness for each of these variants? They are listed below.
1. GUUCCGUUGGCGUAAUGGUAAAGCGUCUCCCCCCUACGGAGAAGACUGCGGGUUCGAGUCCCGUGCGGAACG
2. GUUCCGUUGGCGUGAUGGUAACGCGUCUCCUUCCUAAGGAGAAGACUGCGGGUUCGACUCCCGUACGAAACG
3. GUUCCGUUGGCGUAAUGGUAACGCGUCUCCCUCCUAAGAAGAAAACUGCAGGUUCGAGUCCCCUACGGAACG
4. GUUACGUUGGCGUAAUGGCAACGCGUCUCCCUCCCAAGGAGAAGACUACGGGUUCGAGUCCCGUACGGAACG
5. GGUCCGUUGGCGUGAUGGUAACGCGUGUCCCUCCUAAGGAGAAGACUGCGGCUUCGAGUCCCGUACGGAACG
6. GUUCCAUUGGCGUAUUGCUAACCCGUCUCCCUCCUAAGGAGAGGACUGCGGGUUCGAGUUCCGUACGGAACG
7. GUUGCGUCGGCGUAAUGGUAACGCGUCUCCCUCCUAAGGAGAAGACUCCGGGUUCGAGUCCCGUACGGAACG
8. GUUCCGUUGGCGUAAUGGUAACGCGUCUCCCUCCUAAGGAGAACACUGCGGGUUCGAGUCCCGUACGGAUCG

Solution:
1. ≤ 0.5
2. ≤ 0.5
3. ≤ 0.5
4. ≤ 0.5
5. ≤ 0.5
6. ≤ 0.5
7. 0.568
8. 0.959

# batch size: 8; output yeast fitness per entry
1. GAUCCGUUGGGGUAAUGGUAACGCGUCUCCCUCCUAAGGAGAAGACUGCGAGUUCGAGUUCCGUACGGAACG
2. GUUCCGUUGGCCUAAUGGUAAUGCGUCUCCCUCCUAAGGAGAAGACUGCGGGUCCGAGUCUCGUACGGAACG
3. GUUACGUUGGCGUAAAGGUAACGCGUCUCGUUCCUAAGGAGAAGACUGCGGGUUCGAGUCCCGUACGGAACG
4. GUACCGUUGGCGUAAUGGUAACGCGUCUCCCUCCUAAGGAGAAGACUGCGGGUUCGAGUCCCGUAGGGAACG
5. GUUCCGUUGGCGUAAUGGCAACGCGUCUCCCUCCUAAGGAGAAGACUGCGGGUUCGAGUCCCGUACGGAUCG
6. GUUCCCUUGGCGUGAUGGUCACGCGUCUCCAUCCUAAGGAGAAGACUGCGGGUUCGAGUCCCGAACAGAACG
7. GUUCCGUUGGCGUAAUGGUAACGCGUCUCUCACCUAAGGAGAAGACUGCGGGUUCGAGUCCCGUACGGAACG
8. GUUCGGUUGGCGUACUGGUAAAGCGUCUCCCUCCUAAGGAGAAGACUGCGGGUUCGAGUCCCAUGCGGAACG

Solution:
1. ≤ 0.5
2. 0.532
3. ≤ 0.5
4. 0.669
5. 0.953
6. ≤ 0.5
7. 0.883
8. ≤ 0.5

State the recorded yeast fitness for every item in the following list.
1. GUUCCGUUGGCGUAAUGGUAACGCGUCUACCUUCUAAGGAGAAGACUGCGGGUUCGAGUCCCGUACGGAACG
2. GUUCCGUUGGCGUUAUGGUAACGGGUCUCCCUCCUAAGGAGAAGACUGCGGGUUCGCGUCCCGUACGGAACG
3. GUUCCGUUGCCGUAAUGGUAACGCGUCUCCCUCCUAAGGAGAAGACAACGGGUUCGAGUCCCGUACGGAACG
4. GUUCCGUUGGCGUAAUGCUAACGCGUCUCUCACGUAAGGAGAAGCCGGCGGGUUCGGGUCCCGUACGGAACG

Solution:
≤ 0.5
≤ 0.5
0.568
0.688

Would you mind giving yeast fitness for every variant in the list below?
1. GUUUGGUUGGCGUAAUGGUAACGCGUCUCCCUCCUACGGAGAAGACUGCGGGUUCGAGUCCCGUACGGAACG
2. GUUCCGUUGGCGUAAUGGUAACGCGUCUCCAUCCCAAGGAAAAGACUGCGGGUUCGGGUCCCGUACGGAACG
3. GUUCCGUUGGCGUAAUGGUAUCGCGUGUCCCUUAUAAGGAGAAGACUGCGGGUUCGAGUCCCGUAUGGAACG
4. GUUCCGUUGGCGUAAUGGUAAGGCGUCCCCCUCCUAAGGAGAAGACAGCGGGUUCGAGUCCCGUACGGAACG
5. GUUCCGUUGGCGUAAUGGUAACGCGUUUACCUCCUUAGGCAAAGACUGCGGGUUCGAGUCCCGUUCGGAACG
6. GUUCCGUUGGCGCAAUGGUAACGCGUCUCCCUCCUAAGGAGAAGACUGCGGGUUCGAGUCCCGUACGGAACG

Solution:
["≤ 0.5", "≤ 0.5", "≤ 0.5", "≤ 0.5", "≤ 0.5", 1.01]
